# protocol_details: AUC (0 to infinity) in Sprague-Dawley rat at 5 mg/kg, po by LC-MS/MS analysis
# Type: ADME, organism-based
# Design: time infinity, dose 5 mg/kg, route po
# condition_description: in vivo
Using AUC(0-inf) as the sorting value, the categories are bucket 1: < 10 µM·h; bucket 2: ≥ 10 µM·h and < 20 µM·h; bucket 3: ≥ 20 µM·h

A selection of reference data follows.
Cc1cccc(F)c1CN1CCc2cc(-c3c(C)nc(C)c([C@H](OC(C)(C)C)C(=O)O)c3N3CCC(C)(C)CC3)ccc2C1: bucket 2
Cc1cccc(Cl)c1CN1CCc2cc(-c3c(C)nc(C)c([C@H](OC(C)(C)C)C(=O)O)c3N3CCC(C)(C)CC3)ccc2C1: bucket 2
Cc1nc(C)c([C@H](OC(C)(C)C)C(=O)O)c(N2CCC(C)(C)CC2)c1-c1ccc2c(c1)CCN(Cc1cccc(F)c1F)C2: bucket 1

Could you now consider this next compound?
input: Which band does `Cc1nc(C)c([C@H](OC(C)(C)C)C(=O)O)c(N2CCC(C)(C)CC2)c1-c1ccc2c(c1)CCN(c1nc3cnccc3s1)C2` fall in?
output: bucket 2
